Experiment notes: yeast display, Sf9 membrane polyspecificity reagent, FACS + sequencing; frameworks hold sequencing errors
Property label: polyreactivity (PSR sort gate)

Reference set, count: 6
Problem: // returns reported polyreactivity (PSR sort gate) for input "QVQLVESGGCLVQAGGSLRLSCAASGLIFYGYAMGWYRQAPGKERELVAAITSGGSTNYADSVKGRFTISRDNAKNTVYLQMNSLKPEDTSFYYCNADVIYYYRAYPVYEYDYWGQGTQVTVSS"
Result: low polyreactivity

Problem: # iterate: "QVQLVESGGGLVQAGGSLRLSCAASGRTFRGNVMGWYRQAPGNEREFVAASTRSGSNTYYADSVKGRFTISRDYAKTTVYLQMNSLKPEDTAVYDCAKSVLLGYKRHDSWGQGTQVTVSS"
Result: high polyreactivity

Problem: # iterate: "QVQLVESCGGLVQAGGSLRLSCAAYGSIFTFYAMGWYRQAPGKERELVAAISSGGDTYYADSVTGRFTISRDNAKNTVYLQMNSLKPEDTAVYYCAADWRGSYLYGYYYWGQGTQVTASS"
Result: low polyreactivity

Problem: # iterate: "QVQLVESGGGLVQAGGSLRLSCAASGSIFGFNAMGWYRQAPGKERELVAAINNGGSTNYADSVKGRFTISRDNAKNTVYLQMNSLKPEDTAVYYCAAVGGWRWSNQDYRYPYYYWGQGTQVTVSS"
Result: high polyreactivity

Problem: # iterate: "QVQLVESGGGLVQAGGSLRLSCAASGYIFLVYAMGRSRHAPRKERELVASITRGTRTYYADSVKGRFTISRDNAKNTVYLQMNILKPEDSAVYYCAASQNIRDWFRFGYGSWGQGTQVTVSS"
Result: low polyreactivity

Problem: # iterate: "QVQLVESGGGLVQAGGSLRLSCAASGFIFEKYTMGWYRQAPGKERELVAAITWNGGSTYYADSVKGRFTISRDNAKNTVYLQMNSLIPEDTAVYYCARDDRDISGESGREGFLYDYWGQGTQVTVSS"
Result: low polyreactivity

Others:
Problem: // returns reported polyreactivity (PSR sort gate) for input "QVQLAESGGGLVQAGGSLRLSCAASGRTFSQYGMGWYRQAPGKERELVARIRRSGGSTYYADSVKGRFTISRDNAKNTVYLQMNSLKPEDTAVYYCAARYYWFGQYQYNYWGQGTQVTVSS"
Result: high polyreactivity

Problem: # iterate: "QVQLVESGGGLVQAGGSLLLSCAASGRILWRYAMGWYRQARGKERELVAGITYSGGRTYYADSVKVRFTISRDNAKNTVYLQMNSLKPEDTAVYYCNADYADSPYFYLLLDYWGQGTQVTVSS"
Result: low polyreactivity
